Origin of the recorded values: patent EP4603105A1

target: GDP-bound KRAS wild-type protein (Homo sapiens, UniProt P01116); assay: Binding to KRAS by surface plasmon resonance (SPR), dissociation constant KD; settings: Single Cycle Kinetics, 1:1 binding model
Sequence (P01116 1-188 isoform P01116-2): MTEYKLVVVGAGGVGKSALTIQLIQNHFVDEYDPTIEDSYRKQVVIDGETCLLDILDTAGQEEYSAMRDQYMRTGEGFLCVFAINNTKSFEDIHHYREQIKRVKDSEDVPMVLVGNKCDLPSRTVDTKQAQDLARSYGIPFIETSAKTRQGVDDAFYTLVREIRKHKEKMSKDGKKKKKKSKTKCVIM
For each of the compounds below, state its pKd.
Give bare numbers, as −log10 of the molar value.

[[record]]
structuresmiles = "CCO[C@@H]1C[C@H]2C(=O)NC3(CCC3)C(=O)N(C)[C@@H](C3CCCC3)C(=O)N(C)[C@H](C(=O)N3CCOCC3)CC(=O)N(C)[C@@H](CC3CCCCC3)C(=O)N[C@@H]([C@@H](C)CC)C(=O)N(C)CC(=O)N(C)[C@H]3C/C=C\\CCN(C3=O)[C@@H](Cc3ccc(C)cc3)C(=O)N(C)CC(=O)N[C@@H](CCc3cc(F)c(C(F)(F)F)c(F)c3)C(=O)N2C1"
number = 9.46


INPUT: Given the entry "CC[C@H](C)[C@@H]1NC(=O)[C@H](C2CC2)N(C)C(=O)C[C@@H](C(=O)N(C)C)N(C)C(=O)[C@H](C2CCCC2)N(C)C(=O)C2(CCC2)N(C)C(=O)[C@@H]2C[C@@H](C)CN2C(=O)[C@H](CCc2cc(F)c(C(F)(F)F)c(F)c2)NC(=O)CN(C)C(=O)[C@H](Cc2ccc(C)cc2)N2CC/C=C\C[C@@H](C2=O)N(C)C(=O)CN(C)C1=O" , what pKd was observed with GDP-bound KRAS wild-type protein (Homo sapiens, UniProt P01116)?
OUTPUT: 10.20
